Let's look at some compounds and their measured cell count.
assay.text: inhibitors of TNFa-induced NFkB p65 translocation, primary screen, imaging, HUVEC, MLSMR starter and 10KST1 sets (AID 438);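 further: compound added about 3h40 before a 20 min TNFalpha stimulation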
conditions.used: HUVEC TNFa-induced p65 nuclear translocation; measured here: nuclei count (cytotoxicity indicator), at 2.08 µM
Could you keep your reply to the number by itself?

CCOC(=O)c1ccccc1NC1CC(=O)N(c2ccccc2C)C1=O (configuration not stated); 242
CCCn1c2c(c(O)c(C(=O)Nc3ccc(C)cn3)c1=O)CCCC2; 483
O=C(CN1CCSCC1)N1CCc2[nH]c3ccc(Br)cc3c2C1; 691
COc1ccccc1NC1=C(C)C(=O)CC1; 537
COC(=O)CCN(C(=O)c1ccc2c(c1)OCO2)c1ccccn1; 730

[in] Need cell count, item O=C(O)c1ccc(C2SCC(=O)N2Cc2ccccc2)cc1 (configuration not stated)
[out] 323

[in] Need cell count, item O=C1CCC(c2ccccc2)N1C(=O)c1cccnc1 (configuration not stated)
[out] 565

[in] Need cell count, item Cc1ccc(S(=O)(=O)N2CCOCC2)cc1C(=O)Nc1ccccn1
[out] 542

----------
assay.text: inhibitors of TNFa-induced NFkB p65 translocation, primary screen, imaging, HUVEC, MLSMR starter and 10KST1 sets (AID 438);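 further: compound added about 3h40 before a 20 min TNFalpha stimulation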
conditions.used: HUVEC TNFa-induced p65 nuclear translocation; measured here: nuclei count (cytotoxicity indicator), at 2.08 µM
// N strictly below 500 in cell count; Y otherwise

Solved entries:
CCCn1c(SCC(=O)NCc2ccco2)nc2c1c(=O)n(C)c(=O)n2C; N
Cc1c(C(=O)O)sc2nc3n(c(=O)c12)CCC(C)CC3 (stereo unspecified); Y
CN(C)c1nc(Oc2ccc(N)cc2)nc(N(C)C)n1; N
COc1ccc(-c2noc(C3CCCN(C(=O)CCc4ccccc4)C3)n2)cc1 (stereo unspecified); N
c1cc2c(cc1C1CCCN1)OCCCO2 (stereo unspecified); N

[in] Exam item: decide whether the reported cell count for COc1cccc(N(C(=O)c2ccco2)C(C(=O)NC2CCCC2)c2ccc(N(C)C)cc2)c1 (stereo unspecified) is at least 500.
[out] Y

[in] Exam item: decide whether the reported cell count for CCn1cnc2sc(C(=O)Nc3ccc4c(c3)OCO4)c(C)c2c1=O is at least 500.
[out] N

[in] Exam item: decide whether the reported cell count for CC1CCCCN1CCNC(=O)C1CCN(S(=O)(=O)c2cccc3cccnc23)CC1 (stereo unspecified) is at least 500.
[out] N

[in] Exam item: decide whether the reported cell count for CCOc1ccccc1C(=O)NCC(=O)OCC(=O)N1C(C)CCCC1C (stereo unspecified) is at least 500.
[out] Y

[in] Exam item: decide whether the reported cell count for O=C(NCCN1CCOCC1)C1CCC(=O)N1Cc1ccccc1Cl (stereo unspecified) is at least 500.
[out] Y

----------
assay.text: blockers of RIG-like receptor reporter activation – cell-based, Sendai virus stimulus, luciferase, 10K MLSCN set, TLR/RLR signaling modifier project, primary screen (AID 602276);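 further: firefly luciferase from ISG56 promoter only with Renilla not read in this screen; 0% = Sendai virus plus DMSO and 100% = medium plus DMSO without virus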
conditions.used: HEK293 RL24 IRF3 luciferase reporter, at 10 µM, stronger effect = higher value
// f strictly below 10% in inhibition; t otherwise

Solved entries:
COCCn1c(C)cc(C(=O)COC(=O)c2ccc(N3CCCC3=O)cc2)c1C; t
CCOC(=O)CS(=O)(=O)c1nc(-c2ccccc2)cc(C(F)(F)F)n1; t
COc1ccc(NC(=O)N2CCC(O)(c3cccnc3)CC2)c(OC)c1; t
CN1CCN(c2ccc(Cl)cc2NC(=O)c2cccc(S(=O)(=O)N(C)C)c2)CC1; f

[in] Exam item: decide whether the reported inhibition for O=C(CSc1nc2ccccc2o1)N1CCN(C(=O)c2ccco2)CC1 is at least 10%.
[out] f

----------
assay.text: inhibitors of TNFa-induced NFkB p65 translocation, primary screen, imaging, HUVEC, MLSMR starter and 10KST1 sets (AID 438);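 further: compound added about 3h40 before a 20 min TNFalpha stimulation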
conditions.used: HUVEC TNFa-induced p65 nuclear translocation; measured here: nuclei count (cytotoxicity indicator), at 2.08 µM
// rule not met strictly below 600 in cell count; rule met otherwise

Solved entries:
O=C(Nc1nc(-c2ccccc2)cs1)C1CCCCN1S(=O)(=O)c1ccccc1 (stereo unspecified); rule not met
O=C(OCC#CCSc1nnc(-c2ccncc2)o1)c1cccs1; rule not met
Cc1cc(C(F)(F)F)c2c(C)nn(CCc3nn[nH]n3)c2n1; rule met
Cc1ccccc1-c1nc(CN2CCC(C(=O)NCc3cccnc3)CC2)c(C)o1; rule not met
Cc1ccc2nc(C3CCN(CC(=O)N4CCCCCC4)CC3)[nH]c2c1; rule not met
O=C1OCCC1Sc1ncnc2sc3c(c12)CCC3 (stereo unspecified); rule met
CCn1cc(SCC(=O)NCC2CCCO2)c2ccccc21 (stereo unspecified); rule met
CCNS(=O)(=O)c1ccc(S(=O)(=O)N(Cc2ccccn2)C2CCCCC2)cc1; rule not met

[in] Exam item: decide whether the reported cell count for CCCC(OC(=O)CN1C(=O)COc2ccccc21)C(=O)NC1CCCC1 (stereo unspecified) is at least 600.
[out] rule met

[in] Exam item: decide whether the reported cell count for C=CCn1cc(C(=O)NCCOC)c(=O)c2cc(S(=O)(=O)N(CC)CC)ccc21 is at least 600.
[out] rule not met

----------
assay.text: endothelial E-selectin expression blockers – imaging, HUVEC, immunofluorescence, MLSMR starter and 10KST1 sets, primary screen (AID 487);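 further: 100% = median nuclei count of all wells on the same plate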
conditions.used: HUVEC TNFalpha-induced E-selectin immunofluorescence imaging, at 2 µM; measured here: cell number, toxicity
test.readout: nuclei count (%)
Just the number in %, nothing appended.

# annotated cases, reported nuclei count shown
COc1ccc(CNS(=O)(=O)c2ccc3oc(C(=O)O)c(C)c3c2)cc1; 114
O=C(O)CCCC(=O)NCCc1ccncc1; 112
Cc1ccc(-n2c(Cc3cccn3C)nnc2SCC(=O)NCc2ccc3c(c2)OCO3)cc1; 82.3
Cc1ccc(C(O)c2nc3ccccc3n2C(C)C)cc1 (configuration not stated); 86.7
CCCOC(=O)/C(C(N)=NCc1ccccc1)=C(\O)OCCC; 127

[in] Need nuclei count, item Cn1c(-c2ccc(F)cc2)cnc1NCc1ccccc1
[out] 125

[in] Need nuclei count, item Cc1cc(C(=O)COc2cccc3cccnc23)c(C)n1C
[out] 117

[in] Need nuclei count, item CCN(C(=O)c1cc2cc3ccc(C)cc3nc2o1)c1ccc(OC)cc1
[out] 106

[in] Need nuclei count, item COC(=O)c1ccc(C2C(C#N)=C(N)Oc3cc(C)n(C)c(=O)c32)cc1 (configuration not stated)
[out] 111

----------
system.under.test: Voltage-gated potassium channel subunit beta-2 (Rattus norvegicus)
assay.text: enhancers of rat Kvbeta2 NADPH turnover – biochemical, NADPH fluorescence, primary screen (AID 623);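 further: fluorescence intensity change per second fitted from 20 to 320 s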
conditions.used: Recombinant KvBeta, NADPH fluorescence decrease slope, 10 min; at 10 µM; stronger effect = lower value
test.readout: NADPH fluorescence slope
Could you keep your reply to the number by itself?

Cc1cc(Cl)ccc1NC(=O)CSc1nnc(Cc2cccs2)n1Cc1ccco1; -5e-05
COc1ccccc1CC(=O)NCC1CCCO1 (stereo not given); -4.4e-05
COc1ccc(-c2noc(C3CCCN(C(=O)CCc4ccccc4)C3)n2)cc1 (stereo not given); -5e-06

[in] Need NADPH fluorescence slope, item CCOC(=O)Cc1csc(NC(=O)CSc2nnc(-c3ccncc3)n2Cc2ccco2)n1
[out] -6.1e-05

[in] Need NADPH fluorescence slope, item COc1cc(C2c3c(n[nH]c3C)C(=O)N2c2ccc(C)cc2)ccc1O (stereo not given)
[out] -2.8e-05

[in] Need NADPH fluorescence slope, item COc1ccccc1OCC(=O)Nc1ccc(S(=O)(=O)Nc2nc(C)cc(C)n2)cc1
[out] -6.1e-05

[in] Need NADPH fluorescence slope, item CCn1c(SC)nc2c(c1=O)SC(C)C2 (stereo not given)
[out] -8.5e-05

[in] Need NADPH fluorescence slope, item CC1N=C2c3ccccc3N=C(SCc3cc(=O)n4cc(Cl)ccc4n3)N2C1=O (stereo not given)
[out] -0.0001

[in] Need NADPH fluorescence slope, item O=C1C2C3C=CC(C3)C2C(=O)N1CNc1ccc(O)cc1 (stereo not given)
[out] 2.6e-05

[in] Need NADPH fluorescence slope, item Cc1ccc(S(=O)(=O)CC(=O)N2CCCCCC2)cc1
[out] -5.2e-05

[in] Need NADPH fluorescence slope, item Cc1c[nH]c2cccc(OCC(O)CNC(C)(C)C)c12 (stereo not given)
[out] 1.3e-05

[in] Need NADPH fluorescence slope, item O=c1oc2c3c4c(cc2cc1-c1nc2ccccc2[nH]1)CCCN4CCC3
[out] 1.6e-05

[in] Need NADPH fluorescence slope, item CCCN(CCO)Cc1cccc(Br)c1
[out] 2.5e-05

[in] Need NADPH fluorescence slope, item Cc1cc(C)c(NC2=NCC(=O)N2C2CCCCC2)c(C)c1
[out] 1.7e-05

[in] Need NADPH fluorescence slope, item O=C(Nc1nnc(C2CCCCC2)s1)c1cccs1
[out] -2.3e-05

[in] Need NADPH fluorescence slope, item CCCCc1nc2ccccc2n2cc3c(=O)n(C)c(=O)n(C)c3c12
[out] -1.7e-05

[in] Need NADPH fluorescence slope, item CCOC(=O)C1=C(C)NC(=O)NC1c1ccc(Br)s1 (stereo not given)
[out] -6.2e-05

[in] Need NADPH fluorescence slope, item CCOC(=O)N1CCN(Cc2ccccc2F)CC1
[out] -2e-05

[in] Need NADPH fluorescence slope, item CCn1c(SCC(=O)N2CCN(c3ccc(Cl)cc3)CC2)nc2ccccc2c1=O
[out] 4e-05

[in] Need NADPH fluorescence slope, item Cc1ccc(N2C(N)=NC(N)=NC23CCCC3)c(C)c1
[out] -5.6e-06

[in] Need NADPH fluorescence slope, item Cc1ccc(S(=O)(=O)N(CC(=O)N2CCC(C(N)=O)CC2)Cc2ccc(F)cc2)cc1
[out] -6.9e-05

[in] Need NADPH fluorescence slope, item CC1Oc2ccccc2N(Cc2ccccc2Cl)C1=O (stereo not given)
[out] -5.9e-05
